Target: Human His-tagged RBP4 (residues 19-201), soluble (human, UniProt P02753 19-201)
Test: ITC, -A1120; mean ± S.D., n=4
Task for the reader: assign each of the following binders its reported pKd.
Numbers only, as −log10 of the molar value.

Use these answered entries as a reference point.
BINDER	REPORTED
RS3, rcSso7d-based RBP4 binding interaction partner, soluble protein (designed binder, Expressed in E. coli as His6-SUMO fusion; Monomeric by SEC) ATVKLTYQGEEKQVDISKIKRVARYGQNIYFSYDEGGGAYDYGAVSEKDAPKELLQMLEKQ	5.57
RS5, rcSso7d-based RBP4 binding interaction partner, soluble protein (designed binder, Expressed in E. coli as His6-SUMO fusion; Monomeric by SEC) ATVKFTYQGEEKQVDISKIKRVARYGQGIYFDYGEGGGAWGYGSVSEEDAPKELLQMLEKQ	5.42

Consider the additional binder presented here.
Query: Name the recorded pKd for RF2, FN3-based RBP4 binding interaction partner, soluble protein (designed binder, Expressed in E. coli as His6-SUMO fusion; Monomeric by SEC) VSDVPRDLEVVAATPTSLLISWYYPNASHAGYYRITYGETGGNSPVQEFTVPFSIRYTIATISGLKPGVDYTITVYAVTDYAYYYRLSEPISINYRTEIDKPSQ .
Reply: 5.36
